# system: human Proliferating Cell Nuclear Antigen (hPCNA) (human, UniProt P12004)
# Sequence (P12004 1-259): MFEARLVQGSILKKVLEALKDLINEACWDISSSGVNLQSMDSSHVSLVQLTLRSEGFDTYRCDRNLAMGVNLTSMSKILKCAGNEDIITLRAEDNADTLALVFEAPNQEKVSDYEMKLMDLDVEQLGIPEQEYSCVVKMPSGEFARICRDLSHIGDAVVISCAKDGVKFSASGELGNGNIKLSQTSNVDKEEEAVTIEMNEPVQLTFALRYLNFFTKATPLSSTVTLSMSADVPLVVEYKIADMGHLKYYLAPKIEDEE
# protocol notes: SPR
No end group written: not given here.
Each entry below carries its reported pKd.
Scale explanation: pKd corresponds to minus log10 of a concentration expressed in moles per litre.

Study these solved cases before continuing.
KRRQKKITDYFHSKR-NH2 [p21μ–Pogo] | 8.05
KRRMQTLESFFHSKR-NH2 [p21μ–pol η] | 5.60

Name the recorded pKd of the item KRRQRRVTDFFHSKR-NH2 [p21μ–Cdt1] in your answer. 8.06
